# TARGET_UNDER_TEST: Carbonic anhydrase 1 (Homo sapiens)
# Sequence (P00915 whole entry): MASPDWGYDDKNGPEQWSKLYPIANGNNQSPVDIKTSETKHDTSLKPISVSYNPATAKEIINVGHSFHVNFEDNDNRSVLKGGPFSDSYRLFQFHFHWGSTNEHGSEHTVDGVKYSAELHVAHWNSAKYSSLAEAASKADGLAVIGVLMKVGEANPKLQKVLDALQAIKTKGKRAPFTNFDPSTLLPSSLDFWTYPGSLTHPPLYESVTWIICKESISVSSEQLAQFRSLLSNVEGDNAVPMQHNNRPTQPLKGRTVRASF
# ASSAY_INFO: Inhibition of human recombinant carbonic anhydrase 1 preincubated for 15 mins by stopped flow CO2 hydration method
PROPERTY: Ki

| SMILES_RECORD | Ki |
| --- | --- |
| COc1ccc(-c2cnc(C(=O)N3CCCC3)o2)cc1S(N)(=O)=O | > 10 µM |
| COc1ccc(-c2cnc(C3CC3)o2)cc1S(N)(=O)=O | > 10 µM |

[ask] Note down Ki recorded for COc1ccc(-c2cnc(C)o2)cc1S(N)(=O)=O
[reply] > 10 µM
